Experiment: Primary qHTS for inhibitors of nuclear receptor binding SET domain protein 2 (NSD2) in an isogenic RCH-ACV NSD2 p.E1099K mutant (9B) (AID 1645876); note: nearly all actives have a fitted effect of over 70% in size
Conditions: RCH-ACV (leukaemia line) NSD2 E1099K (9B) viability, CellTiter-Glo, 72 h; series mostly up to 44.9 µM
Inconclusive results are not listed. The source made the active and inactive calls. Calls come from the whole dose curve; as a rule, active = well fitted inhibition curve with a large enough effect; inconclusive = small, poorly fitted or top-dose-only effect; inactive = flat fitted curve, though single readings scatter.
Labels: active, inactive

{"columns": ["Molecule", "Cat"],
 "data": [
  ["COc1cc2c(cc1OC)CC(=O)N(CCCNC[C@H]1Cc3cc(OC)c(OC)cc31)CC2", "inactive"],
  ["CNC(=O)c1ccccc1Nc1nc(Nc2ccc3c(c2OC)CCC[C@@H](N2CCN(CCO)CC2)C3)ncc1Cl", "active"],
  ["CC1(C)CC2C(C1)C(C)(O)C13CC1(COC3=O)C2O (configuration not stated)", "inactive"],
  ["Cc1c(CN2CCN(C(=O)C(C)O)CC2)sc2c(N3CCOCC3)nc(-c3cnc(N)nc3)nc12 (configuration not stated)", "active"],
  ["CC[C@]12C=CCN3CC[C@@]4(c5cc([C@@]6(C(=O)OC)C[C@H]7C[C@@H](C(C)(F)F)CN(Cc8c6[nH]c6ccccc86)C7)c(OC)cc5N(C)[C@H]4[C@@](O)(C(=O)OC)[C@@H]1OC(C)=O)[C@@H]32", "active"],
  ["COc1ccc(/C=C\\C(=O)O)c(O[C@@H]2O[C@H](CO)[C@@H](O)[C@H](O)[C@H]2O)c1", "inactive"],
  ["Cc1ccc(NC(=O)C(=O)NC2CC(C)(C)NC(C)(C)C2)cc1", "inactive"],
  ["NC(=O)Nc1cc(-c2cccc(F)c2)sc1C(=O)NC1CCCNC1 (configuration not stated)", "active"],
  ["CC1(C)CCC(C)(C)c2cc(C3(c4ccc(C(=O)O)cc4)OCCO3)ccc21", "inactive"],
  ["C=C(C)C1CC[C@]2(C(=O)O)CC[C@]3(C(=O)O)[C@H](CCC4[C@@]5(C)CC[C@H](O)C(C)(C)C5CC[C@]43C)C12 (some centres not stated)", "inactive"],
  ["COc1ccc(C(O)C(C)OC2OC(CO)C(O)C(O)C2O)cc1 (configuration not stated)", "inactive"],
  ["COc1cc(O)c2c(c1)C1=C[C@H](O)[C@@H](O)C[C@]1(C)OC2=O", "inactive"],
  ["CC(=O)O[C@H]1C(=O)[C@@]2(C)[C@H]([C@H](OC(=O)c3ccccc3)[C@]3(O)C[C@H](OC(=O)[C@H](O)[C@@H](NC(=O)c4ccccc4)c4ccccc4)C(C)=C1C3(C)C)[C@]1(OC(C)=O)CO[C@@H]1C[C@@H]2O", "active"],
  ["Cc1cccc(C)c1OCc1cc(C(=O)N2CCC(c3ccncc3)CC2)no1", "active"],
  ["C=CC(C)(O)C(O)CC1C(C)(O)C(O)C(O)C2C(C)(C)CCCC21C (configuration not stated)", "inactive"],
  ["Cn1c(=O)n(-c2ccc(C(C)(C)C#N)cc2)c2c3cc(C#Cc4cccnc4)ccc3ncc21", "active"],
  ["Cc1ccc(-c2ccc3ncc4c(c3n2)n(C2CCN(C(=O)[C@H](C)O)CC2)c(=O)n4C)cn1", "active"],
  ["O=C1CCC(=O)N(O)CCCCCNC(=O)CCC(=O)N(O)CCOCCNC(=O)CCC(=O)N(O)CCCCCN1", "inactive"],
  ["CC(=O)OC1CC2(C)C3=CCC4(C)C5C(O)C(O)C(C(C)C)C5(C)CCC4(C)C3CCC2C(C)(C)C1OC1OC(CO)C(O)C(O)C1O (configuration not stated)", "inactive"],
  ["CCCN1CCN(c2ccc(C(=O)NC3(C(=O)NCC#N)CCCCC3)cc2)CC1", "inactive"],
  ["CCOC(=O)c1cc(C#N)c(N2CCC(C(=O)NS(=O)(=O)Cc3ccccc3)CC2)nc1C", "inactive"],
  ["C/C=C1\\[C@H](O[C@@H]2O[C@H](CO)[C@@H](O)[C@H](O)[C@H]2O)OC=C(C(=O)OC)[C@H]1CC(=O)OC[C@H]1O[C@@H](OCCc2ccc(O)cc2)[C@H](O)[C@@H](O)[C@@H]1O", "inactive"],
  ["C/C=C(\\C)C(=O)O[C@H]1[C@@H](O[C@]2(COC(=O)CC(C)C)O[C@H](COC(=O)C(C)CC)[C@@H](OC(C)=O)[C@@H]2O)O[C@H](COC(C)=O)[C@@H](O)[C@@H]1O (some centres not stated)", "inactive"],
  ["CC(C)(O)c1ccc2c(c1)C(O)C[C@H]1[C@](C)(C(=O)O)CCC[C@]21C (some centres not stated)", "inactive"],
  ["CC(O)/C=C/C1C(C)C(O[C@@H]2O[C@H](CO)[C@@H](O)[C@H](O)[C@H]2O)C(O)CC1(C)C (some centres not stated)", "inactive"],
  ["N#Cc1cc(F)cc(-c2nc(-c3ccccn3)no2)c1", "inactive"],
  ["CCC1C(=O)OC23C=C[C@@H]4C(C(=O)O)=CO[C@H](O[C@@H]12)[C@@H]43 (some centres not stated)", "active"],
  ["COc1ccccc1Oc1ccc(N(Cc2cccnc2)S(=O)(=O)CC(F)(F)F)cc1", "inactive"],
  ["O=C(O)Cc1cn(C2OCC(O)C(O)C2O[C@@H]2O[C@H](CO)[C@@H](O)[C@H](O)[C@H]2O)c2ccccc12 (some centres not stated)", "inactive"],
  ["CNC(=O)c1ccccc1Nc1nc(Nc2ccc(N3CCNCC3)cc2)ncc1Cl", "active"],
  ["C=C1C(O)C[C@@H]2C(C(=O)O)=CO[C@@H](O[C@@H]3O[C@H](CO)[C@@H](O)[C@H](O)[C@H]3OC(=O)c3ccc(O)cc3)[C@H]12 (some centres not stated)", "inactive"],
  ["COC(=O)C[C@H]1C(C)(C)[C@H](OC(=O)C(C)C)[C@@]2(O)C(=O)[C@]1(C)C1CC[C@]3(C)C(CC(=O)O[C@H]3c3ccoc3)[C@]13O[C@@H]32 (some centres not stated)", "inactive"]
]}
